# targetOrTestSystem: T1, Human VEGFA165 (human, UniProt P15692-4 27-191)
# T1 construct: treated as the same molecule; also called antigen VEGFA
# T1 sequence (P15692 other isoform, or with tags, fused parts or gaps limits assumed): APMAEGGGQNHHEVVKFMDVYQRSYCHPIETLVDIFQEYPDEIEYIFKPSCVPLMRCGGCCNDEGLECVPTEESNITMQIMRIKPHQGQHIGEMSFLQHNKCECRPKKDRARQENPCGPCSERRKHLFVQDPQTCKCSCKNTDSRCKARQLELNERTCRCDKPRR
# methodDescription: ELISA, VEGFA coated 0.3 µg/mL, anti-His detection
pEC50: −log10 of the molar value.
reportedProperty: pEC50

{"columns": ["binder", "pEC50"],
 "data": [
  ["V41 (VHH, Purified with C-terminal GGGGS-6×His) VHH: QLQLVESGGGSVQPGGSLRLSCEVSGRTFSSYTMGWFRQAPGKEREFVVAISKGGYKYDSVSLEARFTISKDNTKNTVYLQMNSLKPEDTAVYYCAGTRAYGSSRLRLAKTYEYWGQGTQVTVSS", 9.24],
  ["V30 (VHH, Purified with C-terminal GGGGS-6×His; also called candidate antibody V30) VHH: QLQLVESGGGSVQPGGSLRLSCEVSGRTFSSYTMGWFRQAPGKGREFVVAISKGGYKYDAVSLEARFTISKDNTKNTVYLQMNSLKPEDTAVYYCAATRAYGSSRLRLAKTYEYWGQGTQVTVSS", 9.22]
]}

a: V36 (VHH, Purified with C-terminal GGGGS-6×His) VHH: QLQLVESGGGSVQPGGSLRLSCEVSGRTFASYTMGWFRQAPGKEREFVVAISKGGYKYDSVSLEARFTISKDNTKNTVYLQMNSLKPEDTAVYYCAGTRAYGSSRLRLADTYEYWGQGTQVTVSS
b: V29 (VHH, Purified with C-terminal GGGGS-6×His) VHH: QLQLVESGGGSVQPGGSLRLSCEVSGRTFSSYTMGWFRQAPGKEREFVVAISKGGYKYDSVSLEARFTISKDNTKNTVYLQMNSLKPEDTAVYYCAGTRAYGSSRLRLANTYEYWGQGTQVTVSS
pEC50 comparison. Which is larger, a or b ? Please indicate the selected item by its label.
a
(a: 9.44, b: 9.11)
